Data provenance is PubChem BioAssay (NCATS).

- assayProtocol: qHTS for Inhibitors of the Aldehyde Dehydrogenase Family (ALDH1A2, ALDH1A3, ALDH2, ALDH3A1) (AID 2061307); also: nearly all actives have a fitted effect of over 50% in size
- conditionParameters: ALDH inhibition qHTS; series mostly up to 50.3 µM
Records with an inconclusive call do not appear. Activity calls are given as the source filed them. Calls follow the shape of the dose curve; as a rule, active = well fitted inhibition curve with a large enough effect; inconclusive = small, poorly fitted or top-dose-only effect; inactive = no such curve, though single readings can be large or run the other way.
Mark one answer only. Choices: Yes = active, No = inactive

Some solved cases for reference:
>>> answerlabel("O=C(Nc1ccc(F)c(C(F)(F)F)c1)Nc1nnc(C2CCCCC2)s1")
"No"
>>> answerlabel("O=C(/C=C/c1ccc2c(c1)OCO2)Nc1cccc([S+](=O)([O-])Nc2ccccc2F)c1")
"No"
>>> answerlabel("O=S1(=O)N=C(Oc2ccccc2)c2ccccc21")
"No"
>>> answerlabel("S=C(Nc1cc(Cl)ccn1)N1CCN(c2cccc(Cl)c2Cl)CC1")
"Yes"
>>> answerlabel("CC(=O)N1CCN(c2ccc(NCc3ccc(-c4cccc(Cl)c4)o3)cc2)CC1")
"Yes"
>>> answerlabel("COc1ccc(C2Nc3ccccc3C(=O)N2Cc2ccc(C(C)(C)C)cc2)cc1COc1ccc(NC(C)=O)cc1 (stereo not drawn)")
"Yes"
>>> answerlabel("O=C(CSc1nnc(-c2cccc(S(=O)(=O)N3CCCC3)c2)n1-c1ccccc1)Nc1ccc(F)cc1")
"No"
>>> answerlabel("CC(=O)NCCC(=O)N[C@@H](CCC(N)=O)C(=O)N[C@@H](CO)C(=O)N[C@@H](CCC(N)=O)C(=O)N[C@@H](CCC(N)=O)C(=O)N[C@H](C(=O)N[C@@H](Cc1ccccc1)C(=O)N[C@]1(C)CCCCCCC=CCCC[C@@](C)(C(=O)N[C@@H](CCC(N)=O)C(=O)N[C@@H](CC(N)=O)C(N)=O)NC(=O)[C@H](CC(C)C)NC(=O)[C@H](CC(C)C)NC(=O)[C@@H](CCCNC(=N)N)NC(=O)[C@H](Cc2c[nH]c3ccccc23)NC(=O)[C@H](CC(C)C)NC(=O)[C@H](CC(N)=O)NC1=O)[C@H](C)O")
"No"

Q: Tell me the assay call for "COc1ccccc1-c1cc(NCCc2ccccn2)c2onc(C)c2n1" please.
Ans: No

Q: Name the outcome recorded for "Cc1ccc(C)c(SC2=NS(=O)(=O)c3ccccc32)c1" in the assay.
Ans: No

Q: Dear all, I need the recorded test outcome for "N#Cc1ccc(-c2ccc(CNc3ccc(N4CCC(C(F)(F)F)CC4)cc3)o2)cc1" , thank you.
Ans: Yes

Q: Test call, this molecule: "CC(C)(C)OC(=O)N1CCN(c2ccc(NCc3cccc(-c4ccc(C#N)cc4)n3)cc2)CC1"
Ans: Yes

Q: Which outcome did this test record for the molecule "COc1ccc(CC(=O)Nc2c(C(=O)N3CCN(c4ccccc4)CC3)oc3ccccc23)cc1OC" ?
Ans: No

Q: Returns: the outcome recorded for "O=C(Nc1ncc(Cc2ccc(C(F)(F)F)cc2)s1)c1ncc(-c2ccccc2)[nH]1" in this assay.
Ans: No

Q: // outcome(item) with item = "OC[C@H]1O[C@@H](n2cnc3c2NC=NC[C@H]3O)C[C@@H]1O"
Ans: No

Q: How did this test come out for "C[C@@](Cc1ccccc1)(C(=O)O)N1C(=O)c2ccc(C(=O)O)cc2C1=O" ?
Ans: No

Q: What classification did "O=C(O)c1cc(=O)c2c(Cl)cc(Cl)cc2[nH]1" end up with in this test?
Ans: No

Q: Per the records of this test, what outcome belongs to "C=Cc1c(C)c2cc3[nH]c(cc4nc(cc5nc(cc1[nH]2)C(C)=C5CCC(=O)O)C(CCC(=O)O)=C4C)c(C)c3C=C" ?
Ans: Yes
